# measuredOn: Recombinant purified human JAK3 (Homo sapiens)
# assayExplanation: JAK3 inhibitory activity test (ADP-Glo kinase assay)
# assayContext: ATP 5 uM, 1 hour incubation at 30° C.
Reported values of IC50 for individual entries
Supply the numeric figure in nM, leaving out any unit text.

Solved cases (4 shown):
1) CC#CC(=O)Nc1cccc(Oc2cccc3nc(Nc4ccc(N5CCN(C)CC5)cc4)nn23)c1 ... 0.6
2) C=CC(=O)Nc1ccc(F)c(Oc2cccc3nc(Nc4cnn(C)c4)nn23)c1 ... 13.1
3) C=CC(=O)Nc1cccc(Oc2cccc3nc(Nc4cnn(Cc5cccc(OC)c5)c4)nn23)c1 ... 11.1
4) C=CC(=O)Nc1ccc(F)c(Oc2cccc3nc(Nc4cnn(C(F)F)c4)nn23)c1 ... 18.2

Let us move to another entry and its IC50.
For this compound ( C=CC(=O)Nc1ccc(F)c(Oc2cccc3nc(Nc4ccc(N5CCN(C)CC5)cc4)nn23)c1 ), measured IC50 is 0.7

----------
Reported values of pIC50 for individual entries
# measuredOn: Recombinant purified human JAK3 (Homo sapiens, UniProt P52333)
# Sequence (P52333 1-1124): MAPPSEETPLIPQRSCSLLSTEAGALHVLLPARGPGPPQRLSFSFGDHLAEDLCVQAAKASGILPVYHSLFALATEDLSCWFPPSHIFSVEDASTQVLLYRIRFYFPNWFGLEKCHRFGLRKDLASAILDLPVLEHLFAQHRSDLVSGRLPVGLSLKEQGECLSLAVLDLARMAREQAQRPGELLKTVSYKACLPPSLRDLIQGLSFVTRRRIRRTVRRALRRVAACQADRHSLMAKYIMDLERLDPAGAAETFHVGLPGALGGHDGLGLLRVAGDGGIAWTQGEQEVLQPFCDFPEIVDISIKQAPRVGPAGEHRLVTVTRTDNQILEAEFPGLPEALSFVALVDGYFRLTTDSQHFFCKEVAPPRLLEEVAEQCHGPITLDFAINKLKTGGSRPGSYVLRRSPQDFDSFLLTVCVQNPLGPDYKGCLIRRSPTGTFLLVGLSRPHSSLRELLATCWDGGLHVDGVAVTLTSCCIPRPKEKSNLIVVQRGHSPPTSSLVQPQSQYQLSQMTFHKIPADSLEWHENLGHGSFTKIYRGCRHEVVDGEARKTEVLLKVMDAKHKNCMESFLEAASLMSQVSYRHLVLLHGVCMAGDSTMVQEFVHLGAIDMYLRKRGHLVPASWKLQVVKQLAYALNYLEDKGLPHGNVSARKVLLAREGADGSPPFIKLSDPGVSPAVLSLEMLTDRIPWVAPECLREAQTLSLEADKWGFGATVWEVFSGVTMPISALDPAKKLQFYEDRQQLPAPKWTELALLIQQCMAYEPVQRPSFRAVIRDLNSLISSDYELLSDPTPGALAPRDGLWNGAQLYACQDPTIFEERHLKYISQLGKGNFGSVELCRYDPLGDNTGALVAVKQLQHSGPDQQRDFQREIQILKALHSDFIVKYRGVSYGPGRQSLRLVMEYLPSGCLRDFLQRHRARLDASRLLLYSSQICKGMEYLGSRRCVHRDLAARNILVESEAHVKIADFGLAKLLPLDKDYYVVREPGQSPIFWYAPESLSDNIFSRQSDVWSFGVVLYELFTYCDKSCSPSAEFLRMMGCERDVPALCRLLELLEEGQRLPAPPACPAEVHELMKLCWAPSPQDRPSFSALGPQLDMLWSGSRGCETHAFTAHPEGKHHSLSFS
# assayExplanation: JAK3 inhibitory activity test (ADP-Glo kinase assay)
# assayContext: ATP 5 uM, 1 hour incubation at 30° C.
The meaning of pIC50 here: minus log10 of the concentration in molar units.

Solved cases (7 shown):
1. C=CC(=O)Nc1cccc(Oc2cccc3nc(Nc4ccc5ncsc5c4)nn23)c1 [Example 3] ... 8.62
2. C=CC(=O)Nc1cccc(Oc2cccc3nc(Nc4cnn(C(F)F)c4)nn23)c1 [Example 8] ... 8.89
3. C=CC(=O)Nc1cccc(Oc2cccc3nc(Nc4ccc5scnc5c4)nn23)c1 [Example 12] ... 8.59
4. C=CC(=O)Nc1cccc(Oc2cccc3nc(Nc4ccc(N5CCN(C)CC5)cc4)nn23)c1 [Example 1] ... 9.33
5. C=CC(=O)Nc1cccc(Oc2cccc3nc(Nc4cccc(-n5nnnc5C)c4)nn23)c1 [Example 7] ... 8.92
6. C=CC(=O)Nc1cccc(Oc2cccc3nc(Nc4ccc(N(C)C)cc4)nn23)c1 [Example 6] ... 8.68
7. C=CC(=O)Nc1cccc(Oc2cccc3nc(Nc4ccc(-n5nc(C)cc5C)cc4)nn23)c1 [Example 10] ... 8.44

Let us move to another entry and its pIC50.
For this compound ( C=CC(=O)Nc1cccc(Oc2cccc3nc(Nc4cnc5ccccc5c4)nn23)c1 [Example 24] ), measured pIC50 is 7.81
